Origin of values: ChEMBL document CHEMBL5104162

Tested on: RAW264.7
Assay: Inhibition of ROS production in LPS-induced mouse RAW264.7 cells
Format: functional, cell-based
Reported IC50 values for the following compounds.
All answers are understood in µM, so give the number only.

# count of solved cases: 5
Find the recorded IC50 belonging to O=C1/C(=C/c2ccccc2F)CCc2cc(O)ccc21 and report it.
1.74

Item under review: O=C1/C(=C/c2ccc(OC(F)(F)F)cc2)CCc2ccc(O)cc21 . Reported IC50?
0.98

Which IC50 value is on record for O=C1/C(=C/c2ccncc2)CCc2c(O)cccc21 ?
4.17

Given O=C1/C(=C/c2ccc(Br)cc2)CCc2cc(O)ccc21 , state its recorded IC50.
1.52

// IC50 lookup, key: O=C1/C(=C/c2cccc(Br)c2)CCc2cc(O)ccc21
1.14

New cases:
Can you share its IC50? I mean this compound: O=C1/C(=C/c2ccccc2C(F)(F)F)CCc2ccc(O)cc21
1.02
